Attribution: patent US10961200B2

Kindly supply the reported IC50 values for the records listed here.
- System Name: Human LDHA (Homo sapiens (Human))
- Test Protocol: human LDHA primary biochemical assay (resazurin/diaphorase coupled, fluorescence)
- Study Conditions: LDHA inhibitory activity, activity level based on IC50 (Table 7)

[[record]]
molecule = "NS(=O)(=O)c1ccc(Cc2c(-c3ccc(F)c(OCC4CC4(F)F)c3)nn(-c3nc(C(=O)O)cs3)c2CC2CC2)cc1F (stereo not drawn)"
assay_readout = "IC50"
recorded_result = "< 100 nM"

[[record]]
molecule = "N[S+](=O)([O-])c1ccc(Cc2c(-c3ccc(F)c(C4CCCCC4)c3)nn(-c3nc(C(=O)O)cs3)c2CC2CC2)cc1F"
assay_readout = "IC50"
recorded_result = "< 100 nM"


// next item, IC50 requested
// query Which IC50 is listed for Cc1ccc(-c2cc(-c3nn(-c4nc(C(=O)O)cs4)c(CC4CC4)c3Cc3ccc(S(N)(=O)=O)c(F)c3)ccc2F)cc1 ?
// result < 100 nM

* * *

- System Name: UniProtKB P00338
- Test Protocol: human LDHA primary biochemical assay (resazurin/diaphorase coupled, fluorescence)
- Study Conditions: LDHA inhibitory activity, assay of Example 1; activity level classes
Kindly supply the reported IC50 values for the records listed here.

[[record]]
molecule_smiles = "COc1cccc(-c2cc(-c3nn(-c4nc(C(=O)O)cs4)c(CC4CC4)c3Cc3ccc(S(N)(=O)=O)cc3)ccc2F)c1"
recorded_result = "< 0.1 µM"

[[record]]
molecule_smiles = "Cc1ccc(-c2cc(-c3nn(-c4nc(C(=O)O)cs4)c(CC4CC4)c3Cc3ccc(S(N)(=O)=O)cc3)ccc2F)cc1"
recorded_result = "< 0.1 µM"

[[record]]
molecule_smiles = "NS(=O)(=O)c1ccc(Cc2cn(-c3nc(C(=O)O)cs3)c3ccc(-c4ccccc4F)cc23)cc1"
recorded_result = "< 0.1 µM"

[[record]]
molecule_smiles = "NS(=O)(=O)c1ccc(Cc2c(-c3ccc(F)c(C#CC4CCNCC4)c3)nn(-c3nc(C(=O)O)cs3)c2CC2CC2)cc1F"
recorded_result = "< 0.1 µM"

[[record]]
molecule_smiles = "COc1cccc(-c2cc(-c3nn(-c4nc(C(=O)O)cs4)c(CC4CC4)c3Cc3ccc(S(N)(=O)=O)cc3F)ccc2F)c1"
recorded_result = "< 0.1 µM"

[[record]]
molecule_smiles = "CS(=O)(=O)c1cccc(-c2cc(O)n(-c3nc(C(=O)O)cs3)n2)c1"
recorded_result = "> 57 µM"

[[record]]
molecule_smiles = "COc1c(Cc2ccc(S(N)(=O)=O)cc2)c(-c2ccc(F)c(F)c2)nn1-c1nc(C(=O)O)cs1"
recorded_result = "0.1 to 1 µM"

[[record]]
molecule_smiles = "CCOC(=O)c1csc(-n2nc(-c3ccc(F)c(-c4cccc(OC)c4)c3)c(Cc3ccc(S(N)(=O)=O)c(F)c3)c2C2CC2)n1"
recorded_result = "> 57 µM"

[[record]]
molecule_smiles = "NS(=O)(=O)c1ccc(Cc2c(-c3cccc(-c4ccccc4)c3)nn(-c3nc(C(=O)O)cs3)c2CC2CC2)cc1F"
recorded_result = "< 0.1 µM"

[[record]]
molecule_smiles = "O=C(O)c1csc(-n2nc(-c3ccc(CCNS(=O)(=O)C4CC4)c(F)c3)cc2O)n1"
recorded_result = "> 57 µM"


// for each molecule in input: emit IC50
1. CCOC(=O)c1csc(-n2nc(-c3ccccc3)c(Oc3ccc(S(N)(=O)=O)cc3)c2C2CCCC2)n1
2. NS(=O)(=O)c1ccc(Cc2c(-c3cccnc3)nn(-c3nc(C(=O)O)cs3)c2O)cc1
3. CCOC(=O)c1csc(-n2nc(C3CCCC3)c(Oc3ccc(S(N)(=O)=O)cc3)c2-c2ccccc2)n1
4. CC#Cc1cccc(-c2nn(-c3ncc(C(=O)OCC)s3)c(CC3CC3)c2Cc2ccc(S(N)(=O)=O)c(F)c2)c1

// result
1: > 57 µM; 2: 1 to 57 µM; 3: > 57 µM; 4: 1 to 57 µM

// for each molecule in input: emit IC50
1. CCOC(=O)c1csc(-n2nc(-c3ccccc3)c(Cc3ccc(S(N)(=O)=O)cc3)c2C2CC2)n1
2. N#Cc1c(Cc2ccc(S(N)(=O)=O)cc2)c(-c2ccccc2)nn1-c1nc(C(=O)O)cs1
3. Cn1c(C(=O)O)cnc1-n1cc(Cc2ccc(S(N)(=O)=O)cc2)c(-c2ccccc2)n1
4. NS(=O)(=O)c1ccc(Cc2c(-c3ccccc3)nn(-c3nc(CO)cs3)c2Cc2nnn[nH]2)cc1
5. NS(=O)(=O)c1ccc(Cc2c(-c3ccc(F)c(-c4ccc(F)cc4)c3)nn(-c3nc(C(=O)O)cs3)c2C(F)(F)F)cc1

// result
1. > 57 µM
2. < 0.1 µM
3. > 57 µM
4. > 57 µM
5. < 0.1 µM

// for each molecule in input: emit IC50
1. CCOC(=O)c1cccc(-n2nc(-c3ccccc3)c(Cc3ccc(S(N)(=O)=O)cc3)c2N)c1
2. CCOC(=O)c1csc(-n2nc(CC3CC3)c(Cc3ccc(S(N)(=O)=O)cc3F)c2-c2ccc(F)c(-c3cccc(OC)c3)c2)n1
3. Nc1c(Cc2ccc(S(N)(=O)=O)cc2)c(-c2ccccc2)nn1-c1nc(C(F)(F)F)cs1
4. NS(=O)(=O)c1ccc(Cc2c(-c3cccc(-c4ccccc4)c3)nn(-c3nc(C(=O)O)cs3)c2CCC2CC2)cc1
5. CCOC(=O)c1csc(-n2nc(-c3ccccc3)c(Cc3ccc(S(N)(=O)=O)cc3)c2CC#N)n1
6. C=Cc1c(Cc2ccc(S(N)(=O)=O)cc2)c(-c2ccccc2)nn1-c1nc(C(=O)O)cs1

// result
1: > 57 µM; 2: > 57 µM; 3: > 57 µM; 4: < 0.1 µM; 5: > 57 µM; 6: < 0.1 µM

// for each molecule in input: emit IC50
1. NS(=O)(=O)c1ccc(Cc2c(-c3cccc(-c4ccccc4)c3)nn(-c3nc(C(=O)O)cs3)c2CC2CC2)c(F)c1
2. CCOC(=O)c1csc(-n2nc(-c3ccc(F)c(-c4cccc(OC)c4)c3)c(Cc3ccc(S(N)(=O)=O)c(F)c3)c2CC2CC2)n1
3. NS(=O)(=O)c1ccc(NCc2cn(-c3nc(C(=O)O)cs3)nc2-c2ccccc2)cc1

// result
["< 0.1 µM", "1 to 57 µM", "> 57 µM"]
